Measured viability, listed per entry.
- experimentalDetails: viability of PTEN-null HCT116 cells – cell-based, HCT116 clonal line, CellTiter-Glo, pilot screen (AID 824);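 note: 0% = 20 µM Hyamine control and 100% = vehicle cell control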
- testConditions: HCT116 PTEN-deleted viability, 60 h, at 10 µM, active compounds read low
Records with an inconclusive call do not appear. The source made the active and inactive calls.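 Rule for the calls: active = viability at or below 27.92% in each of two runs, the all-compound median minus 4 SD; inconclusive = no clear call, values can overlap the other calls; inactive = the rest.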

Look up viability for this compound: CCOC(=O)N1CCC(N2C(=O)c3ccc(C(=O)Nc4ccc(F)cc4F)cc3C2=O)CC1 94.4% (inactive)

Next compound up: Cc1ccc(-c2nnc3n2N=C(c2ccccc2)CS3)cc1 96.9% (inactive)

Next compound up: COc1cccc(C2NC(=O)NC(C)=C2C(=O)Nc2ccc(C)cc2)c1 (stereo unspecified) 97.6% (inactive)

Next compound up: CC(=O)OCCNc1cc(N2CCN(C)CC2)c2noc3c2c1C(=O)c1ccccc1-3 73% (inactive)

Next compound up: CCCc1cc(=O)oc2cc(C)cc(OC(=O)c3ccco3)c12 80.6% (inactive)

Further cases:
Look up viability for this compound: Cc1cccc(OCC(=O)N2CCN(C(=O)Cc3ccccc3)CC2)c1 81.4% (inactive)

----------
- experimentalDetails: RAM signaling pathway blockade in yeast – S. cerevisiae, Pdr1DBD-CYC8 efflux-inhibited sensitized strain, primary screen (AID 1298);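 note: 0% = DMSO untreated cells without growth and 100% = 10 µM 1-NA-PP1 full growth; higher means more yeast growth rescued from 5-FOA killing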
- testConditions: S. cerevisiae cbk1-as DSE1-URA3 strain, 5-FOA growth OD615, 2 d; at 50 µM
Active and inactive are the calls of the source.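 Rule for the calls: active = RAM network inhibition above 8.4% in each of two replicates, 3 SD over the compound average; inconclusive = above 8.4% inhibition in only one replicate; inactive = 8.4% inhibition or less in each replicate.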
Hi! Could you answer with just one of these? active, inactive

Previously resolved entries follow.
Could you check what this test reported for Cc1ccc(Cl)cc1N1CCN(C(=O)C2CCC(=O)N2C(C)C)CC1 (centres undefined) ? inactive

Next compound up: CCOc1ccc(-c2nc(-c3ccccc3)no2)cc1OCC inactive

Next compound up: CCOCCCNC(=O)CN1CCN(Cc2ccccc2C)C1=O inactive

Next compound up: CN(CP(=O)(O)C(O)c1ccccc1)S(C)(=O)=O (centres undefined) inactive

Next compound up: CC(C)Oc1ccc(/C(O)=C2/C(=O)C(=O)N(CCCN3CCOCC3)C2c2ccncc2)cc1 (centres undefined) inactive

Next compound up: CCOC(=O)c1ccccc1NC(=O)c1ccc2c(=O)n3c(nc2c1)CCCCC3 active

Next compound up: COc1ccccc1CNC(=O)COC(=O)c1ccc(NC(N)=O)cc1 inactive

Next compound up: CN1CCN(CC(=O)N2c3ccccc3C(C)(c3ccccc3)CC2(C)C)CC1 (centres undefined) inactive

Further cases:
Could you check what this test reported for CC(=O)NC(C)c1nc2ccccc2n1C(C)C (centres undefined) ? inactive

Next compound up: O=C(c1ccco1)c1nnn(Cc2ccccc2)c1-c1ccccc1 inactive

----------
- experimentalDetails: HUVEC growth inhibition – cell-based, human, primary screen (AID 575);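 note: 100% = median of untreated cell wells with 0.1% DMSO on each plate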
- testConditions: HUVEC proliferation, CellTiter-Glo luminescence, 72 h; at 10 µM; active compounds read low
Measured viability, listed per entry.
Give the number; % is assumed, so skip it.

Solved entries (count: 5):
Look up viability for this compound: COc1cccc(C2CC(=O)Nc3cc4c(cc32)OCCO4)c1OC(C)C (stereo not drawn) 84.6

Next compound up: CCOc1cc(C2NC(=O)NC(O)(C(F)(F)F)C2C(=O)c2ccccc2)ccc1OC (stereo not drawn) 104

Next compound up: Cc1ccc(-c2noc(COc3ccccc3C)n2)cc1 102

Next compound up: O=C(CCNS(=O)(=O)c1cccc2nsnc12)NCc1cccs1 94.3

Next compound up: O=C(O)C1CC=CCC1C(=O)Nc1cccc(F)c1 (stereo not drawn) 88.1

Further cases:
Look up viability for this compound: CCSc1oc(-c2ccco2)nc1S(=O)(=O)c1ccccc1 93.3

Next compound up: COc1cccc(-c2nc3n(n2)C(c2cccs2)C(C(=O)Nc2cccnc2)=C(C)N3)c1 (stereo not drawn) 83.2
